tested on: H522 lung cancer cells; test: Cell viability, H522; format: cell-based; settings: Homo sapiens, NCI-H522, read-out: IC50 (μM) H522 (Lung)
reported_endpoint: IC50 (µM)
Respond with the bare value in µM.

Prompt: I would be grateful if you could share the reported IC50 for C=CS(=O)(=O)N1CCN(Cc2cccc(OC(F)(F)F)c2)CC1 .
Completion: 24.4

* * *

Target: Taspase1 (Homo sapiens, UniProt Q9H6P5)
Sequence (Q9H6P5 1-233): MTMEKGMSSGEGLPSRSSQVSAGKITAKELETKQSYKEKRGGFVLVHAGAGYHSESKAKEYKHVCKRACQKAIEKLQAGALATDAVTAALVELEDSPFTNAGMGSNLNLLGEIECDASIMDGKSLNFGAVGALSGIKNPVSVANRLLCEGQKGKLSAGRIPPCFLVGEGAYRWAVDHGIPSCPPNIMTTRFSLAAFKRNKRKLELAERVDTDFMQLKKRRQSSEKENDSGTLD
Sequence (Q9H6P5 234-420): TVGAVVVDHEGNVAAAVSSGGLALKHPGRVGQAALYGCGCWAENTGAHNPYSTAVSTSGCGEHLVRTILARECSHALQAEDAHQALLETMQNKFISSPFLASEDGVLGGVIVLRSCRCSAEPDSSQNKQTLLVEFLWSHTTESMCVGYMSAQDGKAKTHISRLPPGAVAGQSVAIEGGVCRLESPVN
Assay: biochemical
Settings: Ki (μM), Table 1a
reported_endpoint: Ki (µM)
Respond with the bare value in µM.

Previously resolved entries follow.
C=CS(=O)(=O)N1CCN(Cc2ccc(OC(F)(F)F)cc2)CC1 [SMDC967]    30
C=CS(=O)(=O)N1CCN(Cc2ccc(OC(F)(F)F)c(F)c2)CC1 [SMDC689]    45.8

Prompt: I would be grateful if you could share the reported Ki for C=CS(=O)(=O)N1CCN(Cc2ccc(OC(F)(F)F)c(F)c2)[C@@H](COCc2cn[nH]c2)C1 [SMDC203] .
Completion: 45

Prompt: I would be grateful if you could share the reported Ki for C=CS(=O)(=O)N1CCN(Cc2ccc(OC(F)(F)F)c(F)c2)[C@@H](CCO)C1 [SMDC069] .
Completion: 33

Prompt: I would be grateful if you could share the reported Ki for C#CCOC[C@H]1CN(S(=O)(=O)C=C)CCN1Cc1ccc(OC(F)(F)F)c(F)c1 [SMDC883] .
Completion: 87

* * *

system: PC9, H1975, H522, HSAEC 1-KT, MDA-MB-231 and PC3 cell lines; experiment: Cell viability, statements over all cell lines studied; assay type: cell-based; details: all cell lines studied; read-out: IC50 against cell lines studied
reported_endpoint: IC50

Prompt: I would be grateful if you could share the reported IC50 for C=CS(=O)(=O)N1CCN(Cc2cccc(OC(F)(F)F)c2)CC1 .
Completion: > 20 µM

* * *

In this section we review reported pIC50 values for a set of molecules.
molecular target: wildtype Taspase1 (split Tasp1 WT) (Homo sapiens, UniProt Q9H6P5); assay: biochemical; conditions: IC50 vs split Tasp1 WT
In simple prose, pIC50 is minus the logarithm base ten of a concentration in moles per litre.

Previously resolved entries follow.
CN(C)CCSSCCCC(=O)NCc1ccc(OC(F)(F)F)cc1    4.52
C=CS(=O)(=O)N1CCN(Cc2ccc(OC(F)(F)F)c(F)c2)CC1    7.29
C=CS(=O)(=O)NCCCc1ccc(OC(F)(F)F)cc1    4.80
CN(C)CCSSCCCNC(=O)Cc1ccc(OC(F)(F)F)cc1    4.95
C=CS(=O)(=O)N1CCN(Cc2cccc(OC(F)(F)F)c2)CC1    4.40

Prompt: I would be grateful if you could share the reported pIC50 for C=CS(=O)(=O)N1CCN(Cc2ccc(OC(F)(F)F)cc2)CC1 .
Completion: 6.94

* * *

target: wildtype Taspase1 (split Tasp1 WT) (Homo sapiens); assay: biochemical; conditions: Biochemical IC50 (nM) +6.6 mM GSH, Table 1; +6.6 mM GSH; 3FAM/QXL520 fluorescent dyes
reported_endpoint: IC50 (nM)
Respond with the bare value in nM.

C#CCOC[C@H]1CN(S(=O)(=O)C=C)CCN1Cc1ccc(OC(F)(F)F)c(F)c1 [SMDC883]    340

Prompt: I would be grateful if you could share the reported IC50 for C=CS(=O)(=O)N1CCN(Cc2ccc(OC(F)(F)F)c(F)c2)[C@@H](COCc2cn[nH]c2)C1 [SMDC203] .
Completion: 237

Prompt: I would be grateful if you could share the reported IC50 for C=CS(=O)(=O)N1CCN(Cc2ccc(OC(F)(F)F)c(F)c2)CC1 [SMDC689] .
Completion: 661

Prompt: I would be grateful if you could share the reported IC50 for C=CS(=O)(=O)N1CCN(Cc2ccc(OC(F)(F)F)c(F)c2)[C@@H](CCO)C1 [SMDC069] .
Completion: 273

Prompt: I would be grateful if you could share the reported IC50 for C=CS(=O)(=O)N1CCN(Cc2ccc(OC(F)(F)F)c(F)c2)[C@@H](CN2CCS(=O)(=O)CC2)C1 [SMDC275] .
Completion: 420

* * *

molecular target: UniProt Q9H6P5; experiment: biochemical; settings: WT IC50 (nM) 6.6 mM GSH, Table 1a; 6.6 mM GSH; average ± std dev
reported_endpoint: IC50 (nM)
Respond with the bare value in nM.

Previously resolved entries follow.
C=CS(=O)(=O)N1CCN(Cc2ccc(OC(F)(F)F)c(F)c2)[C@@H](CCO)C1    273
C=CS(=O)(=O)N1CCN(Cc2ccc(OC(F)(F)F)c(F)c2)CC1    661
C=CS(=O)(=O)N1CCN(Cc2ccc(OC(F)(F)F)c(F)c2)[C@@H](COCc2cn[nH]c2)C1    237
C#CCOC[C@H]1CN(S(=O)(=O)C=C)CCN1Cc1ccc(OC(F)(F)F)c(F)c1    340

Prompt: I would be grateful if you could share the reported IC50 for C=CS(=O)(=O)N1CCN(Cc2ccc(OC(F)(F)F)c(F)c2)[C@@H](CN2CCS(=O)(=O)CC2)C1 .
Completion: 420

* * *

Target: UniProt Q9H6P5
Assay: biochemical
Conditions: read-out: kinact (s^−1), Table 1a
Method: FIGS. 4A-4B. […] “Taspase1 IC50 (FAM)”=inhibition of cleavage of a Taspase1 peptide substrate; detected by fluorescence resonance energy transfer (FRET). “6.6 mM GSH added”=same assay, in the presence of 6.6 mM glutathione (GSH). […] “Ki”=Ki determined by kinact/Ki measurements, using the Taspase1/FRET-peptide assay described above. Ki is the binding constant that describes the energy of association for the non-covalent portion of the molecule. […]
reported_endpoint: kinact (s⁻¹)
Respond with the bare value in s⁻¹.

Previously resolved entries follow.
C=CS(=O)(=O)N1CCN(Cc2ccc(OC(F)(F)F)c(F)c2)[C@@H](COCc2cn[nH]c2)C1    0.061
C=CS(=O)(=O)N1CCN(Cc2ccc(OC(F)(F)F)cc2)CC1    0.004

Prompt: I would be grateful if you could share the reported kinact for C=CS(=O)(=O)N1CCN(Cc2ccc(OC(F)(F)F)c(F)c2)[C@@H](CCO)C1 .
Completion: 0.112

Prompt: I would be grateful if you could share the reported kinact for C#CCOC[C@H]1CN(S(=O)(=O)C=C)CCN1Cc1ccc(OC(F)(F)F)c(F)c1 .
Completion: 0.045

Prompt: I would be grateful if you could share the reported kinact for C=CS(=O)(=O)N1CCN(Cc2ccc(OC(F)(F)F)c(F)c2)CC1 .
Completion: 0.031

* * *

Molecular target: Taspase1 (Homo sapiens)
Experiment: biochemical
Conditions: read-out: kinact (s^−1), Table 1
Method: FIGS. 4A-4B. […] “Taspase1 IC50 (FAM)”=inhibition of cleavage of a Taspase1 peptide substrate; detected by fluorescence resonance energy transfer (FRET). “6.6 mM GSH added”=same assay, in the presence of 6.6 mM glutathione (GSH). […] “Ki”=Ki determined by kinact/Ki measurements, using the Taspase1/FRET-peptide assay described above. Ki is the binding constant that describes the energy of association for the non-covalent portion of the molecule. […]
// Condition not met strictly below 0.03 s⁻¹ in kinact; Condition met otherwise

Reference set (3 entries):
C=CS(=O)(=O)N1CCN(Cc2ccc(OC(F)(F)F)c(F)c2)CC1    Condition not met
C=CS(=O)(=O)N1CCN(Cc2ccc(OC(F)(F)F)c(F)c2)[C@@H](COCc2cn[nH]c2)C1    Condition met
C=CS(=O)(=O)N1CCN(Cc2ccc(OC(F)(F)F)cc2)CC1    Condition not met

Prompt: // inclusive: kinact at least 0.03 s⁻¹? input: C=CS(=O)(=O)N1CCN(Cc2ccc(OC(F)(F)F)c(F)c2)[C@@H](CCO)C1
Completion: Condition met

Prompt: // inclusive: kinact at least 0.03 s⁻¹? input: C#CCOC[C@H]1CN(S(=O)(=O)C=C)CCN1Cc1ccc(OC(F)(F)F)c(F)c1
Completion: Condition met

Reference for the values: patent US20230052528A1
